A collection of binders and their measured ELISA A450
# assay-system: mouse CD3epsilon protein (mouse) (UniProt P22646)
# Sequence (P22646 22-108 limits assumed): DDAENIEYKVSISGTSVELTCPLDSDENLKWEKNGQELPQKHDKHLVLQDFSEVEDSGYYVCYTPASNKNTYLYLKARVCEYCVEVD
# procedure-details: ELISA, antigen coated on plate
reported-property: ELISA A450 (A450)

binder	reading-unit	endpoint-value
WBP3311_2.306.4 (antibody, IgG2b, V domains shown) VH: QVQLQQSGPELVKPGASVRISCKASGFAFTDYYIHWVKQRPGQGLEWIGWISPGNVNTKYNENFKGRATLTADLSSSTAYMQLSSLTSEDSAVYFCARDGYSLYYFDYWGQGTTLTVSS VL: DIVMSQSPSSLTVSAGEKVTMSCKSSQSLLNSRTRKNYLAWYQQKPGQSPKLLIYWASTRQSGVPDRFTGSGSGTAFTLTISGVQAEDLAVYFCTQSHTLRTFGGGTKLEIK	A450	0.711
WBP331_2.488.33 (antibody, V domains shown) VH: QVQLQQSGPELVKPGTSVKISCKASGFSFTNYYIHWVKQRPGQGPEWIGWIFPGTVNTKYNEKFKGKATLTADTSSNTAFMQLSSLTSADSAVYFCARDSVGIYYFDFWGLGTTLTVSS VL: DIVMSQSPSSLAVSAGEKVTVSCKSSQSLLNNRTRKNYLAWYQQKPGQSPKLLIYWASTRESGVPDRFTGSGSGTDFTLTISSVQAEDLAVYYCTQSFILRTFGGGTKLEIK	A450	0.607
WBP3311_2.844.8 (antibody, V domains shown) VH: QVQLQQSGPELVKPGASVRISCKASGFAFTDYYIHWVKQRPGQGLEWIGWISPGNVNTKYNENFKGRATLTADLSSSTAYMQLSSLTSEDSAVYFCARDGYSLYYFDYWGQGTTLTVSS VL: DIVMSQSPSSLTVSAGEKVTMSCKSSQSLLNSRTRKNYLAWYQQKPGQSPKLLIYWASTRESGVPDRFTGSGSGTAFTLTISGVQAEDLAVYFCTQSHTLRTFGGGTKLEIK	A450	0.6

These entries and their values trace back to patent US20200299384A1.
